Here the recorded z-score is given for each entry.
# test_method_notes: DUSP6 inhibitors restoring Erk phosphorylation by chemical complementation, primary imaging in DUSP6-transfected HeLa (AID 609)
# protocol_conditions: HeLa MKP-3 transfected, phospho-Erk imaging KS statistic; measured here: cell density z-score; at 10 µM; cells stimulated with TPA for 15 min
Output: the number by itself.

These solved cases illustrate the format of a correct answer.
[[record]]
smiles_data = "CSc1ccccc1NC(=O)c1c(Br)cnn1C"
obs_value = -0.962

[[record]]
smiles_data = "CN1CCN(c2nc(C(N)=O)cc(-c3ccccc3)n2)CC1"
obs_value = 1.22

[[record]]
smiles_data = "CCOCCSc1nc2c(c(=O)[nH]c(=O)n2C)n1CCCc1ccccc1"
obs_value = 0.294

[[record]]
smiles_data = "Cn1ccnc1SCCC#N"
obs_value = -0.727

[[record]]
smiles_data = "O=C(NCC(F)(F)F)N1CCOCC1"
obs_value = 0.272


z-score recorded for this molecule, `CC(=O)OCC(=O)[C@H]1CC[C@H]2[C@@H]3CC=C4C[C@@H](O)CC[C@]4(C)[C@H]3CC[C@]12C` , is 0.459

Provenance of the data: PubChem BioAssay
